# system.under.test: I338G v-Src (Rous sarcoma virus subgroup A, UniProt P00524, DEL77-225/I338G)
# Construct: screened against the catalytic domain of the target kinase, I338G v-Src; made in house; host or cells: E. coli DH5a, pGEX-KT
# experimental.details: biochemical
# Assay type: biochemical
metric.name: IC50 (nM)

compound="CC(C)(C)n1nc(-c2cccc(OCc3ccccc3)c2)c2c(N)ncnc21 [Compound 6d]" metric_name=IC50 scale_unit=nM assay_result=7
compound="CC(C)(C)n1nc(-c2cccc(OCc3c(Cl)cccc3Cl)c2)c2c(N)ncnc21 [Compound 6e]" metric_name=IC50 scale_unit=nM assay_result=130
compound="CC(C)(C)n1nc(Cc2ccc3ccccc3c2)c2c(N)ncnc21 [Compound 6j]" metric_name=IC50 scale_unit=nM assay_result=20
compound="CC(C)(C)c1ccc(-c2nn(C(C)(C)C)c3ncnc(N)c23)cc1 [Compound 6g]" metric_name=IC50 scale_unit=nM assay_result=99
compound="CC(C)(C)n1nc(-c2cccc(Oc3ccccc3)c2)c2c(N)ncnc21 [Compound 6c]" metric_name=IC50 scale_unit=nM assay_result=140
